I'd be grateful if you could share measured microsomal CLint at 1 µM for these entries.
Test: Microsome stability, mouse liver microsomes
Format: in vitro ADME
Settings: NADPH, 37 °C, pH 7.4, read-out: mLM CLint (μg/min/mg)

Here is how some compounds turned out for microsomal CLint at 1 µM.
{"compound": "Nc1nc(NCc2ccc(I)cc2)c(Cl)nc1C(=O)NCCN1CCN(Cc2ccccc2)CC1 [Compound 1]", "test.value": "176 µL/min/mg"}
{"compound": "N/C(=N\\C(=O)c1nc(Cl)c(NCc2ccc(I)cc2)nc1N)NCC1CCN(CCc2ccccc2)CC1 [Compound 51]", "test.value": "67 µL/min/mg"}

Here is the next item to consider.
Q: For the compound N/C(=N\C(=O)c1nc(Cl)c(NCc2ccc(I)cc2)nc1N)NCCCOc1ccc(Cl)cc1 [Compound 52] , what microsomal CLint at 1 µM is on record?
A: 81 µL/min/mg
